Tested on: DU-145 prostate
protocol-notes: NCI tumour cell line growth inhibition, 48 h
recorded-endpoint: TGI

Recorded results for 5 molecules are shown here.
> print(dat)
                                   molecule  test.result
1                   CCCNC(=O)c1ccc(Cl)cc1Cl     > 100 µM
2  Cc1nc2ccc(NC3OC(CO)C(O)C(O)C3O)cc2c(=O)n1-c1ccccc1 (configuration not stated)     > 100 µM
3               CCCCCCOc1ccc(C(=O)N(C)O)cc1        66 µM
4  Cc1nn2c(C(=O)N/N=C/c3ccc([N+](=O)[O-])cc3)c(C)nc2s1     > 100 µM
5  O=C(O)CCc1c2ccc(=O)c(O)c-2oc2c(O)c(O)ccc12     > 100 µM

Tell me its TGI given `COc1ccc(/C=C2\Sc3nnc(CNc4ccc(Cl)cc4)n3N=C2c2cc(F)c(Cl)cc2Cl)cc1OC` as the entry.
> 100 µM

###

System: SN12C renal
protocol-notes: NCI tumour cell line growth inhibition, 48 h
Where a SMILES comes first, the peptide text is derived from it.
TGI overview

Tell me measured TGI for `COc1cc2ncnc(Nc3ccc4c(cnn4Cc4ccccc4)c3)c2cc1OC` please.
> 25 µM

Indicate the recorded TGI value for this compound: CC(C)CC(NC(=O)C(Cc1ccccc1)NC(=O)C(Cc1c[nH]c2ccccc12)NC(=O)CNC(=O)C(N)Cc1ccc(O)cc1)C(=O)O (stereo not drawn) (H-YGWFL-OH; configuration not given here)
> 100 µM

Fill in reported TGI for this entry: `CCCCOCc1cc(CN2CCN(C)CC2)c(O)c2ncccc12`
> 100 µM

###

Tested on: HOP-92 NSCLC
protocol-notes: NCI tumour cell line growth inhibition, 48 h
# TGI values compiled below

> print(dat)
                                   compound  test.result
1  CC(C)(C)OC/C=C1\C(=O)O[C@H]2C[C@@H](O[Si](C)(C)C(C)(C)C)C[C@@H]12     > 100 µM
2          CCCCC(=O)N/N=C/c1c(O)ccc2ccccc12    > 84.5 µM
3  O=c1c(Br)cc2c(-c3ccccc3)c3cc(Br)c(O)c(Br)c3oc-2c1Br     > 100 µM
4      Cc1cc(C(=O)O)c(C)n1-c1cccc(C(=O)O)c1     > 100 µM
5                C(=N\OCCc1ccccc1)/c1cccnc1     > 100 µM

Tell me measured TGI for COC(=O)[C@]1(c2cc3ccccc3[nH]2)CC2CN(CC(=O)N(C)OC)C1CC2(OC)OC (stereo partly specified) please.
> 100 µM

###

Test system: SW-620 colon
protocol-notes: NCI tumour cell line growth inhibition, 48 h
Consider the following compounds and their measured GI50 readings.

State its GI50: `CN1CCN(Cc2ccc(NC(=O)c3cncc(C#Cc4cncc5nccnc45)c3)cc2C(F)(F)F)CC1`
0.878 µM

Assign GI50 to the following record: `COc1cc(-c2n/c(=C\c3c(O)[nH]c4cc(Cl)ccc34)cc3c2=Nc2ccccc2-3)cc(OC)c1OC`
4.07 µM

###

Tested on: HL-60(TB) leukemia
protocol-notes: NCI tumour cell line growth inhibition, 48 h
Where a SMILES comes first, the peptide text is derived from it.
Recorded TGI values for a group of compounds are listed next.

compound	TGI
COC(=O)C1=CN(C2CCCCC2)C2(c3ccccc3)c3ccccc3C(=O)OC(=O)C12 (stereo not given)	> 100 µM
C[C@]1(Cn2ccnn2)C(C(=O)O)N2C(=O)CC2S1(=O)=O (stereo not given in full)	> 100 µM
CCCCN[C@H]1C2C3CC4C5CC(C42)C1(C)C53 (stereo not given in full)	> 100 µM
Cc1ncc([N+](=O)[O-])n1CCNCCCn1ccnc1[N+](=O)[O-]	> 100 µM
CC(C)CC(NC(=O)C(Cc1ccccc1)NC(=O)C(Cc1c[nH]c2ccccc12)NC(=O)CNC(=O)C(N)Cc1ccc(O)cc1)C(=O)O (stereo not given) (H-YGWFL-OH; configuration not given here)	60.9 µM

Provide TGI value for the following compound: CN(C)CC1CCCCCCCCCC(CN(C)C)C1=O (stereo not given)
> 100 µM

Please look at this compound and report its TGI: `CN(C)c1ccc(-c2ccc(N(C)C)c3n[se]nc23)c2n[se]nc12`
> 100 µM

Indicate the recorded TGI value for this compound: `CCCNC(=O)c1ccc(Cl)cc1Cl`
> 100 µM

Report measured TGI; entry is `O=C(O)C1(Cc2ccc3c(c2)CCC3)Cc2ccccc2C1`
> 100 µM

Give the value of TGI reported for the following: `NC(=O)N/N=C(/Cc1nc2ccc(C(=O)c3ccccc3)cc2[nH]c1=O)C(=O)Nc1ccc(C(F)(F)F)cc1[N+](=O)[O-]`
> 100 µM

Return the recorded TGI value; entry: `O=C(Nc1cc(Cl)cc(Cl)c1)/C(Cc1nc2ccccc2[nH]c1=O)=N/NC(=O)c1ccncc1`
> 100 µM

Please give measured TGI of the following entry: `O=C(Cc1nc2ncccc2[nH]c1=O)c1c[nH]c2ccccc12`
> 100 µM

###

Test system: SF-295 CNS
protocol-notes: NCI tumour cell line growth inhibition, 48 h
Where a SMILES comes first, the peptide text is derived from it.
TGI listing for selected compounds.

Solved cases (9 shown):
compound	test-result
O=c1[nH]nc(Cn2c3ccc(Br)cc3c3nc4ccccc4nc32)n1C1CCCCC1	> 100 µM
CCOC(=O)c1c(-c2ccc(Br)cc2)ccn1C	> 10 µM
O=C1C(=O)c2ccccc2C(O)=C1CCCc1ccc(C2CCCCCC2)cc1	30.2 µM
O=C1N[C@@H]2c3c(Br)sc(Br)c3C(=O)[C@@H]2O1	32.5 µM
Cc1ccc(C2=C(c3ccc(C)cc3)C3(c4ccc(C)cc4)C4C(=O)c5ccccc5C(=O)C4C2(c2ccc(C)cc2)S3=O)cc1 (stereo not given)	> 100 µM
Fc1cccc(Cl)c1C1SCc2nc3cc4ccccc4cc3n21 (stereo not given)	> 100 µM
Oc1cccc(/C=N/Nc2nnc(N/N=C/c3cccc(O)c3)c3ccccc23)c1	31.8 µM
CC1Cc2cc(O)c(O)cc2-c2cc(O)c(O)cc2CC1C (stereo not given)	20.8 µM
CCC(C)C1NC(=O)C2CCCN2C(=O)CNC(=O)C(C)NC(=O)C(Cc2ccccc2)NC(=O)C(C(C)C)NC1=O (stereo not given) (cyclo(GPIVFA); configuration not given here)	> 100 µM

Read the next record carefully.
// Input: `Cc1[nH]nc2c1N=C(c1ccccc1F)c1cc(C(N)=O)ccc1N2` . Output its TGI only.
24.9 µM

###

A collection of compounds and their measured TGI
Test system: DLD-1 colon
protocol-notes: NCI tumour cell line growth inhibition, 48 h

Study these solved cases before continuing.
compound	TGI
CCN(CC)C(=O)N1CCN(C=S)CC1	> 100 µM
C[C@@H]1C2=CC[C@@]3(C)C(CCC3[C@H](C)[C@H]3C[C@@]4(C)O[C@@](c5cccnc5)(O3)OC4(C)C)[C@@H]2C2OC2[C@@]12CCC(=O)O2 (some centres undefined)	> 100 µM
COc1ccc2c(c1)[n+]([O-])c(-c1ccc(C)cc1)c(N)[n+]2[O-]	> 100 µM

Kindly review the next compound as well.
Tell me its TGI given `NC(=O)N/N=C(/Cc1nc2ccc(C(=O)c3ccccc3)cc2[nH]c1=O)C(=O)Nc1ccc(C(F)(F)F)cc1[N+](=O)[O-]` as the entry.
> 100 µM

###

Tested on: RXF 393 renal
protocol-notes: NCI tumour cell line growth inhibition, 48 h
recorded-endpoint: TGI

Worked cases, answers included:
> print(dat)
                                   compound  subject.of.test  test.result
1  CCc1cc2ncc(CN3CCN(c4ccc(C(=O)NC)nc4)CC3)cc2[nH]c1=O    RXF 393 renal     > 100 µM
2  CCC(=O)Nc1ccccc1C#C/C=C\C#Cc1ccccc1C(F)(F)F    RXF 393 renal    > 12.7 µM
3  O=C(CC1(O)C(=O)Nc2ccccc21)c1ccc(O)cc1 (stereo unspecified)    RXF 393 renal     > 100 µM
4           CCOC(=O)c1c(-c2ccc(Br)cc2)ccn1C    RXF 393 renal      > 10 µM

Tell me its TGI given `COc1cc(N2CCN(C(C)C)CC2)ccc1Nc1nc(Nc2cccc(F)c2C(=O)O)c2cc[nH]c2n1` as the entry.
> 25 µM

Complete the entry with TGI for CCCCN[C@H]1C2C3CC4C5CC(C42)C1(C)C53 (stereo partly specified)
> 100 µM

Return reported TGI. Input compound: `CCOC(=N)CC(=O)Nc1cccc(Cl)c1`
> 100 µM

Give the reported value of TGI for this record: `O=c1[nH]nc(Cn2c3ccc(Br)cc3c3nc4ccccc4nc32)n1C1CCCCC1`
> 100 µM

Supply measured TGI of Fc1cccc(Cl)c1C1SCc2nc3cc4ccccc4cc3n21 (stereo unspecified) in your reply.
> 100 µM

Fill in TGI for record `O=[N+]([O-])c1ccc(/C=C/c2csnn2)cc1`
> 100 µM
